Reported IC50 values follow for various compounds
# experimental protocol: DRUGMATRIX: Calcium Channel Type L, Phenylalkylamine radioligand binding (ligand: [3H] (-)-Desmethoxyverapamil (D-888))
# Type: cell membranes, Rattus norvegicus, Wistar, Brain, Membrane
# experimental conditions: Not Active = under 50% inhibition at 10 µM; read-out: IC50
quantity kind: IC50 (nM)

{"columns": ["compound", "quantitative result"],
 "data": [
  ["COC(=O)C1=C(C)NC(C)=C(C(=O)OC)C1c1ccccc1[N+](=O)[O-]", 878],
  ["Fc1ccc([C@@H]2CCNC[C@H]2COc2ccc3c(c2)OCO3)cc1", 747],
  ["CNCCC=C1c2ccccc2CCc2ccccc21", 1890],
  ["CN(C)CCCC1(c2ccc(F)cc2)OCc2cc(C#N)ccc21 (stereo not given)", 1020],
  ["COc1ccc([C@@H]2Sc3ccccc3N(CCN(C)C)C(=O)[C@@H]2OC(C)=O)cc1", 630]
]}
